Readings of pIC50 for the listed compounds
- Assayed System: BRD4(BD1) (Homo sapiens, UniProt O60885)
- Construct: His; made in house
- Experiment: BRD4 AlphaLisa binding assay (Alphascreen)
- Run Parameters: Table 6; BRD4(BD1) 30 nM, H4-tetraacetyl peptide 200 nM; read-out: BRD4 Alphascreen IC50
pIC50: −log10 of the molar value.
Observation Type: pIC50

1) Cc1noc2c1-c1sc(C)c(C)c1C(c1ccc(Cl)cc1)=N[C@H]2CC(N)=O :: > 6.30
2) COCCNC(=O)C[C@@H]1N=C(c2ccc(Cl)cc2)c2ccccc2-c2c(C)noc21 :: > 6.30
3) Cc1cccc2c1C(c1ccc(Cl)cn1)=N[C@@H](CC(N)=O)c1onc(C)c1-2 :: > 6.30
4) Cc1noc2c1-c1sc(C)c(C)c1C(c1ccnnc1)=NC2CC(N)=O (centres unmarked) :: 6.00 to 6.30
5) Cc1noc2c1-c1sc(C)c(C)c1C(c1ccc(Cl)cc1)=N[C@H]2Cc1nccs1 :: > 6.30
6) Cc1noc2c1-c1sc(C)c(C)c1C(c1ccccc1)=NC2CC(N)=O (centres unmarked) :: > 6.30
7) Cc1cccc2c1C(c1ccc(C#N)cc1)=N[C@@H](CC(N)=O)c1onc(C)c1-2 :: > 6.30
8) Cc1noc2c1-c1sc(C)c(C)c1C(c1cncnc1)=NC2CC(N)=O (centres unmarked) :: < 6.00

Data origin: patent US9522920B2
